What pIC50 was measured for each of the following?
Molecular target: AKT2 (Homo sapiens, UniProt P31751)
Sequence (P31751 whole entry): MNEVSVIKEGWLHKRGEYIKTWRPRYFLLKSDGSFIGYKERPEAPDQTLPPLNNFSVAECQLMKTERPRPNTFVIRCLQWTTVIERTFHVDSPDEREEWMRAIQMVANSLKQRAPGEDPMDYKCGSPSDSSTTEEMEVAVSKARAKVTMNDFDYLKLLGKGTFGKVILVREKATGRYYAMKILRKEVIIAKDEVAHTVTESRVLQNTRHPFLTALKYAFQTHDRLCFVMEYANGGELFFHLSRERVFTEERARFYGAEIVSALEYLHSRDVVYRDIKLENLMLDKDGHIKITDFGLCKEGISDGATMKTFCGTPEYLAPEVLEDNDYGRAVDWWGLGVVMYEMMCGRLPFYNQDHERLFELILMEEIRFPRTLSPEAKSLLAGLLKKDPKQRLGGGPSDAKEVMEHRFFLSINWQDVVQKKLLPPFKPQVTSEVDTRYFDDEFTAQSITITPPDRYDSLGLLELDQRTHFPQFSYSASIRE
Assay: Live cell AKT2 target engagement by NanoBRET competitive probe displacement
Details: HEK293 cells transfected with kinase-NanoLuciferase fusion, 2 h at 37° C.
In textbook form, pIC50 equals minus log to base ten of the concentration in mol/L.

[ask] Form field: reported pIC50 of C=CC(=O)N1C[C@@H]2C[C@H]1CC2N[C@H]1CCc2cc(-n3c(-c4cccnc4N)nc4ccc(-n5cccn5)nc43)ccc21 (single isomer, unassigned) [Example 136]
[reply] 5.71

[ask] Moving on to C=CC(=O)N1CCC(N[C@@H]2c3ccc(-n4c(-c5cccnc5N)nc5ccc(-n6cccn6)nc54)cc3CC2F)C(C)C1 (single isomer, unassigned) [Example 289]
[reply] 6.84

[ask] Also check `C=CC(=O)N1CCC(N[C@H]2CCc3cc(-n4c(-c5cccnc5N)nc5ccc(-n6ccc(C(C)C)n6)nc54)ccc32)CC1`
[reply] 7.09

[ask] Param item: C=CC(=O)N1C[C@H]2COC[C@@H](C1)C2N[C@H]1CCc2cc(-n3c(-c4cccnc4N)nc4ccc(-n5cccn5)nc43)ccc21 (single isomer, unassigned) [Example 72]
[reply] 6.54

[ask] Also C=CC(=O)N1CCC(N[C@H]2CC(O)c3cc(-n4c(-c5cccnc5N)nc5ccc(-n6cccn6)nc54)ccc32)CC1 (single isomer, unassigned) [Example 218] ?
[reply] 6.85
